ASSAY_PROTOCOL: Solubility in buffered cyclodextrin solutions (excess method of Higuchi and Connors)
Assay type: physicochemical
CONDITION_SET: buffered HP-β-CD solutions, pH = 5.5, 25 °C
ATTRIBUTE_MEASURED: Correlation parameter b (Eq. 2, Cs = a + b·CCD)

These solved cases illustrate the format of a correct answer.
Correlation parameter b (Eq. 2, Cs = a + b·CCD) recorded for this molecule, Cc1cn2c(=O)c3nc(Br)n(COCCO)c3nc2[nH]1 [Compound 6] , is 2.66 × 10^−2

Correlation parameter b (Eq. 2, Cs = a + b·CCD) recorded for this molecule, O=c1c2ncn(COCCO)c2nc2[nH]c(-c3ccccc3)cn12 [Compound 8] , is 2.22 × 10^−2

Correlation parameter b (Eq. 2, Cs = a + b·CCD) recorded for this molecule, O=c1c2ncn(COCCO)c2nc2[nH]c(-c3ccc(-c4ccccc4)cc3)cn12 [Compound 9] , is 2.12 × 10^−2

Correlation parameter b (Eq. 2, Cs = a + b·CCD) recorded for this molecule, O=c1c2ncn(COCCO)c2nc2[nH]c(-c3ccc4ccccc4c3)cn12 [Compound 12] , is 0.88 × 10^−2

Next:
Correlation parameter b (Eq. 2, Cs = a + b·CCD) recorded for this molecule, O=c1c2ncn(COCCO)c2nc2[nH]ccn12 [Compound 4] , is 1.98 × 10^−2

Correlation parameter b (Eq. 2, Cs = a + b·CCD) recorded for this molecule, COc1ccc(-c2cn3c(=O)c4ncn(COCCO)c4nc3[nH]2)cc1 [Compound 11] , is 1.00 × 10^−2

* * *

ASSAY_PROTOCOL: Solubility in water or 1-octanol (saturated solutions, UV-Vis)
Type: physicochemical
CONDITION_SET: 25 °C
I'd appreciate it if you marked entries Condition met when Solubility ratio in 1-octanol and water, C oc/C w is lower than 0.4 and Condition not met when it is not.

Record excerpt, results attached:
Request: For this compound, is Solubility ratio in 1-octanol and water, C oc/C w lower than 0.4? `COc1ccc(-c2cn3c(=O)c4ncn(COCCO)c4nc3[nH]2)cc1`
Response: Condition not met

Request: For this compound, is Solubility ratio in 1-octanol and water, C oc/C w lower than 0.4? `O=c1c2ncn(COCCO)c2nc2[nH]c(-c3ccccc3)cn12`
Response: Condition not met

Request: For this compound, is Solubility ratio in 1-octanol and water, C oc/C w lower than 0.4? `Cc1cn2c(=O)c3ncn(COCCO)c3nc2[nH]1`
Response: Condition met

Next:
Request: For this compound, is Solubility ratio in 1-octanol and water, C oc/C w lower than 0.4? `O=c1c2ncn(COCCO)c2nc2[nH]c(-c3ccc4ccccc4c3)cn12`
Response: Condition not met

Request: For this compound, is Solubility ratio in 1-octanol and water, C oc/C w lower than 0.4? `O=c1c2ncn(COCCO)c2nc2[nH]c(-c3ccc(-c4ccccc4)cc3)cn12`
Response: Condition not met

Request: For this compound, is Solubility ratio in 1-octanol and water, C oc/C w lower than 0.4? `O=c1c2ncn(COCCO)c2nc2[nH]ccn12`
Response: Condition met

* * *

ASSAY_PROTOCOL: Solubility in water or 1-octanol (saturated solutions, UV-Vis)
Assay type: physicochemical
CONDITION_SET: water, 45 °C, water, thermodynamic from solid; read-out: Aqueous solubility, C w
The entries below are paired with their reported solubility.
Give the number; µM is assumed, so skip it.

These solved cases illustrate the format of a correct answer.
solubility recorded for this molecule, Nc1nc2c(ncn2COCCO)c(=O)[nH]1 [Compound 1, 9-[(2-hydroxyethoxy)methyl] guanine, reference compound] , is 19700

solubility recorded for this molecule, Nc1nc(O)c2ncn(COC(CO)CO)c2n1 [Compound 3, reference compound] , is 22900

solubility recorded for this molecule, `Nc1nc2c(nc(Br)n2COCCO)c(=O)[nH]1` , is 2490

solubility recorded for this molecule, `COc1ccc(-c2cn3c(=O)c4ncn(COCCO)c4nc3[nH]2)cc1` , is 465

solubility recorded for this molecule, `CC(C)(C)c1cn2c(=O)c3ncn(COCCO)c3nc2[nH]1` , is 31900

Next:
solubility recorded for this molecule, `Cc1cn2c(=O)c3nc(Br)n(COCCO)c3nc2[nH]1` , is 2590

solubility recorded for this molecule, `O=c1c2ncn(COCCO)c2nc2[nH]c(-c3ccc(-c4ccccc4)cc3)cn12` , is 658

solubility recorded for this molecule, `O=c1c2ncn(COCCO)c2nc2[nH]c(-c3ccccc3)cn12` , is 728

solubility recorded for this molecule, `O=c1c2ncn(COCCO)c2nc2[nH]ccn12` , is 6750

* * *

ASSAY_PROTOCOL: Solubility in water or 1-octanol (saturated solutions, UV-Vis)
Format: physicochemical
CONDITION_SET: thermodynamic from solid; water, 25 °C (Table 1); read-out: Solubility in water, C w
The entries below are paired with their reported solubility.
Please report the result as a number followed by the unit.

solubility recorded for this compound, `Cc1cn2c(=O)c3nc(Br)n(COCCO)c3nc2[nH]1` , is 2110 µM

solubility recorded for this compound, Nc1nc2c(ncn2COCCO)c(=O)[nH]1 [Compound 1, 9-[(2-hydroxyethoxy)methyl] guanine, reference compound] , is 8070 µM

solubility recorded for this compound, `O=c1c2ncn(COCCO)c2nc2[nH]ccn12` , is 3070 µM

solubility recorded for this compound, `COc1ccc(-c2cn3c(=O)c4ncn(COCCO)c4nc3[nH]2)cc1` , is 53 µM

solubility recorded for this compound, `O=c1c2ncn(COCCO)c2nc2[nH]c(-c3ccccc3)cn12` , is 238 µM

Next:
solubility recorded for this compound, `Nc1nc2c(nc(Br)n2COCCO)c(=O)[nH]1` , is 1030 µM

solubility recorded for this compound, `O=c1c2ncn(COCCO)c2nc2[nH]c(-c3ccc(-c4ccccc4)cc3)cn12` , is 229 µM

solubility recorded for this compound, `O=c1c2ncn(COCCO)c2nc2[nH]c(-c3ccc(Br)cc3)cn12` , is 364 µM

solubility recorded for this compound, `CC(C)(C)c1cn2c(=O)c3ncn(COCCO)c3nc2[nH]1` , is 3080 µM

* * *

ASSAY_PROTOCOL: Solubility in buffered cyclodextrin solutions (excess method of Higuchi and Connors)
Format: physicochemical
CONDITION_SET: phosphate buffer with HP-β-CD, aqueous with cosolvent or surfactant or cyclodextrin, thermodynamic from solid; Buffer + HP-β-CD (2 × 10^−2 mol·dm^−3), pH = 7.0, 37 °C; read-out: Solubility, C 6-Ph-O-Me-TACV
ATTRIBUTE_MEASURED: solubility at 7 days (µM)
Give the number; µM is assumed, so skip it.

solubility at 7 days recorded for this compound, `COc1ccc(-c2cn3c(=O)c4ncn(COCCO)c4nc3[nH]2)cc1` , is 391

* * *

ASSAY_PROTOCOL: Solubility in buffered cyclodextrin solutions (excess method of Higuchi and Connors)
Assay type: physicochemical
CONDITION_SET: phosphate buffer saturated with 1-octanol, aqueous buffer, thermodynamic from solid; Buffer saturated with 1-octanol, pH = 5.5, 25 °C; read-out: Solubility, C 6-Ph-O-Me-TACV
ATTRIBUTE_MEASURED: solubility at 7 days
Please report the result as a number followed by the unit.

solubility at 7 days recorded for this compound, `COc1ccc(-c2cn3c(=O)c4ncn(COCCO)c4nc3[nH]2)cc1` , is 74.2 µM

* * *

ASSAY_PROTOCOL: Solubility in buffered cyclodextrin solutions (excess method of Higuchi and Connors)
Assay type: physicochemical
CONDITION_SET: phosphate buffer saturated with 1-octanol, aqueous with cosolvent or surfactant or cyclodextrin, thermodynamic from solid; Buffer saturated with 1-octanol + HP-β-CD (2 × 10^−2 mol·dm^−3), pH = 7.0, 25 °C; read-out: Solubility, C 6-Ph-O-Me-TACV
ATTRIBUTE_MEASURED: solubility at 7 days
Please report the result as a number followed by the unit.

solubility at 7 days recorded for this molecule, COc1ccc(-c2cn3c(=O)c4ncn(COCCO)c4nc3[nH]2)cc1 [Compound 11] , is 40.3 µM

* * *

The entries below are paired with their reported Correlation parameter a (Eq. 2, Cs = a + b·CCD).
ASSAY_PROTOCOL: Solubility in buffered cyclodextrin solutions (excess method of Higuchi and Connors)
Assay type: physicochemical
CONDITION_SET: buffered HP-β-CD solutions, pH = 7.0, 25 °C

Correlation parameter a (Eq. 2, Cs = a + b·CCD) recorded for this molecule, COc1ccc(-c2cn3c(=O)c4ncn(COCCO)c4nc3[nH]2)cc1 [Compound 11] , is 5.68 × 10^−5

Correlation parameter a (Eq. 2, Cs = a + b·CCD) recorded for this molecule, Cc1cn2c(=O)c3nc(Br)n(COCCO)c3nc2[nH]1 [Compound 6] , is 1.03 × 10^−3

Correlation parameter a (Eq. 2, Cs = a + b·CCD) recorded for this molecule, O=c1c2ncn(COCCO)c2nc2[nH]ccn12 [Compound 4] , is 2.48 × 10^−3

Correlation parameter a (Eq. 2, Cs = a + b·CCD) recorded for this molecule, O=c1c2ncn(COCCO)c2nc2[nH]c(-c3ccc4ccccc4c3)cn12 [Compound 12] , is 3.05 × 10^−5

Next:
Correlation parameter a (Eq. 2, Cs = a + b·CCD) recorded for this molecule, O=c1c2ncn(COCCO)c2nc2[nH]c(-c3ccc(-c4ccccc4)cc3)cn12 [Compound 9] , is 2.65 × 10^−4

Correlation parameter a (Eq. 2, Cs = a + b·CCD) recorded for this molecule, O=c1c2ncn(COCCO)c2nc2[nH]c(-c3ccccc3)cn12 [Compound 8] , is 2.50 × 10^−4
